target: mouse IDO1 (Mus musculus (Mouse))
Sequence (P28776 whole entry): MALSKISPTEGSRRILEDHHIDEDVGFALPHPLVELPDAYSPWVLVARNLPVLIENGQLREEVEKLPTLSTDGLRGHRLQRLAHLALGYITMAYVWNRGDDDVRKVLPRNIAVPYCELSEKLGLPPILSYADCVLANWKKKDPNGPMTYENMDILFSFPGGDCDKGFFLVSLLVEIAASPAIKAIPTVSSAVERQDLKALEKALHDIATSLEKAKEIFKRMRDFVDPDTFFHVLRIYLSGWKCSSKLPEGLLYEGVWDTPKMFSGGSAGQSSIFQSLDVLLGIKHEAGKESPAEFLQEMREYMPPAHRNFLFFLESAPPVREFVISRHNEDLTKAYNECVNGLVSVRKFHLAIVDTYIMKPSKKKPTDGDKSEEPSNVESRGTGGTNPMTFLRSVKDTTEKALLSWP
quantity: pIC50
Give bare numbers, as −log10 of the molar value.

INSERT INTO results (compound, quantity, measured) VALUES
  ('O=C1CC(c2c[nH]c3ccc(F)cc23)C(=O)N1 (racemic)', 'pIC50', 5.82);

Next compound, pIC50 to be filled in.
Prompt: Quick one: pIC50 for `O=C1C[C@H](c2c[nH]c3ccc(F)cc23)C(=O)N1` ?
Response: 6.14

###

molecular target: UniProt:P48776; test: TDO2 activity assay in P815 mouseTDO2 clone 12 cells
Sequence (P48776 whole entry): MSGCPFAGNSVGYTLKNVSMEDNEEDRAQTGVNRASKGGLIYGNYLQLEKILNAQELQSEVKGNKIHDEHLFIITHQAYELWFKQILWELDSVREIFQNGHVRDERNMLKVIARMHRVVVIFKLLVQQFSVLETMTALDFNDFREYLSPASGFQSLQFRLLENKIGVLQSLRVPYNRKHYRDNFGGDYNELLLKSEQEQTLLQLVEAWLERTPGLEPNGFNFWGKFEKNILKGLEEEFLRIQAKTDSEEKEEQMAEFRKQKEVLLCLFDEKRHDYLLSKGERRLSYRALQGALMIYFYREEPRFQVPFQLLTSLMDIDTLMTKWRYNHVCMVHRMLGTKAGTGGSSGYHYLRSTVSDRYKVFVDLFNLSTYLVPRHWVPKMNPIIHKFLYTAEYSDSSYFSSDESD
quantity: IC50

Please state IC50 for every compound in the list that follows.
1. O=C1CC(c2c[nH]c3ccc(F)cc23)C(=O)N1 (racemic) [Compound 1]
2. O=C1C[C@H](c2c[nH]c3ccc(F)cc23)C(=O)N1 [Compound 2]

Response:
1. > 50 µM
2. > 50 µM

###

assay: Passive permeability in RRCK cells; type: in vitro ADME, canine; details: dog, MDCK, read-out: intrinsic permeability, apical to basolateral (A to B)
quantity: Papp A→B (×10⁻⁶ cm/s)
Answers are plain numbers, in ×10⁻⁶ cm/s.

Prompt: Quick one: Papp A→B for O=C1CC(c2c[nH]c3ccc(F)cc23)C(=O)N1 (racemic) [Compound 1] ?
Response: 25.5

###

Lab note: pIC50 readings collected with UniProt P48775 for the following compounds.
Sequence (P48775 whole entry): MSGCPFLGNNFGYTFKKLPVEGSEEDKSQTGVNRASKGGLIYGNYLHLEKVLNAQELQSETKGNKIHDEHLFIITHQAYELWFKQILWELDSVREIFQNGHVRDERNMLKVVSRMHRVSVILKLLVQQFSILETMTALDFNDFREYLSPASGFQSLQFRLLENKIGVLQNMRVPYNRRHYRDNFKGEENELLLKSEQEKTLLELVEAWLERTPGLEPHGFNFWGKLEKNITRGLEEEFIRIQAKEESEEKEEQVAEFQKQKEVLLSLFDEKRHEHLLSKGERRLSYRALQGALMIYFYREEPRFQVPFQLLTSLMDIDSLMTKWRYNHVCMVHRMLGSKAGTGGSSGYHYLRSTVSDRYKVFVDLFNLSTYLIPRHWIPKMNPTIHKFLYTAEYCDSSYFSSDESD
pIC50: −log10 of the molar value.

INSERT INTO assay_data (compound, quantity, measured) VALUES
  ('O=C1C[C@H](c2c[nH]c3ccc(F)cc23)C(=O)N1', 'pIC50', '< 4.30');

Prompt: Quick one: pIC50 for O=C1CC(c2c[nH]c3ccc(F)cc23)C(=O)N1 (racemic) ?
Response: < 4.30
